Parameter solubility: see the listing below.
- test description: Aqueous solubility of the compound at pH 7.4 by HPLC/UV analysis
- Assay type: physicochemical
- measurement context: buffer
measured property: solubility (µg/mL)

cpd smiles	data value
CNC(=O)c1cc(N)c(Nc2ccc(C#N)cc2)cc1Oc1c(C)cc(/C=C/C#N)cc1C	1.32
Cc1cc(/C=C/C#N)cc(C)c1Oc1cc(Nc2ccc(C#N)cc2)c(N)cc1C(=O)O	117
COC(=O)c1cc(N)c(Nc2ccc(C#N)cc2)cc1Oc1c(C)cc(/C=C/C#N)cc1C	1.3
Cc1cc(/C=C/C#N)cc(C)c1Oc1cc(Nc2ccc(C#N)cc2)c(N)cc1C(N)=O	0.63
Cc1cc(/C=C/C#N)cc(C)c1Oc1cc(Nc2ccc(C#N)cc2)c(N)cc1CO	3.23
